assaySystem: Human MAO-B (Homo sapiens)
Construct: purchased Sigma-Aldrich
testSummary: Determination of human MAO-B inhibitory activity (Monoamine Oxidase Assay Kit, fluorescence)
Type: biochemical
Listed next: entries and their corresponding IC50.
measuredQuantity: IC50 (nM)

1. CCc1c(O)c(=O)ccn1CCCn1cc(COc2cc3ccccc3oc2=O)nn1 [Compound 27j]; 860
2. Cc1cc(=O)c(O)c(CO)n1CCCn1cc(COc2ccc3ccc(=O)oc3c2)nn1 [Compound 27b]; 680

* * *

assaySystem: Human MAO-B (Homo sapiens, UniProt P27338)
Construct: purchased Sigma-Aldrich
testSummary: Determination of human MAO-B inhibitory activity (Monoamine Oxidase Assay Kit, fluorescence)
Type: biochemical
assayContext: compound at 10 μM, read-out: Inhibitory rate (%) 10 μM
// reported inhibition at 10 µM per item
measuredQuantity: inhibition at 10 µM (%)

1) Cc1cc(=O)c(O)c(C)n1CCn1cc(COc2ccc3ccc(=O)oc3c2)nn1 [Compound 27c]; 91
2) CCc1c(O)c(=O)ccn1CCCn1cc(COc2cc3ccccc3oc2=O)nn1 [Compound 27j]; 88.8
3) Cc1cc(=O)c(O)c(CO)n1CCn1cc(COc2cc(=O)oc3ccccc23)nn1 [Compound 27h]; 85.7
4) Cc1cc(=O)c(O)c(CO)n1CCn1cc(COc2ccc3ccc(=O)oc3c2)nn1 [Compound 27a]; 96.2
5) CCc1c(O)c(=O)ccn1CCn1cc(COc2cc3ccccc3oc2=O)nn1 [Compound 27i]; 94
6) CCc1c(O)c(=O)ccn1CCn1cc(COc2cc(=O)oc3ccccc23)nn1 [Compound 27f]; 93.3
7) CCc1c(O)c(=O)ccn1CCCn1cc(COc2cc(=O)oc3ccccc23)nn1 [Compound 27g]; 89.5
8) Cc1cc(=O)c(O)c(CO)n1CCCn1cc(COc2cc3ccccc3oc2=O)nn1 [Compound 27k]; 90.5
9) CCc1c(O)c(=O)ccn1CCCn1cc(COc2ccc3ccc(=O)oc3c2)nn1 [Compound 27e]; 95.7
10) Cc1cc(=O)c(O)c(C)n1CCCn1cc(COc2ccc3ccc(=O)oc3c2)nn1 [Compound 27d]; 98.3

* * *

melting point listing for selected compounds.
measuredQuantity: melting point

1. Cc1cc(=O)c(O)c(CO)n1CCn1cc(COc2ccc3ccc(=O)oc3c2)nn1 [Compound 27a]; 212 to 215 °C
2. CCc1c(O)c(=O)ccn1CCn1cc(COc2cc3ccccc3oc2=O)nn1 [Compound 27i]; 258 to 261 °C
3. Cc1cc(=O)c(O)c(CO)n1CCn1cc(COc2cc(=O)oc3ccccc23)nn1 [Compound 27h]; 142 to 148 °C
4. CCc1c(O)c(=O)ccn1CCCn1cc(COc2cc3ccccc3oc2=O)nn1 [Compound 27j]; 192 to 195 °C

* * *

assaySystem: Human MAO-B (Homo sapiens, UniProt P27338)
Construct: purchased Sigma-Aldrich
Sequence (P27338 1-520): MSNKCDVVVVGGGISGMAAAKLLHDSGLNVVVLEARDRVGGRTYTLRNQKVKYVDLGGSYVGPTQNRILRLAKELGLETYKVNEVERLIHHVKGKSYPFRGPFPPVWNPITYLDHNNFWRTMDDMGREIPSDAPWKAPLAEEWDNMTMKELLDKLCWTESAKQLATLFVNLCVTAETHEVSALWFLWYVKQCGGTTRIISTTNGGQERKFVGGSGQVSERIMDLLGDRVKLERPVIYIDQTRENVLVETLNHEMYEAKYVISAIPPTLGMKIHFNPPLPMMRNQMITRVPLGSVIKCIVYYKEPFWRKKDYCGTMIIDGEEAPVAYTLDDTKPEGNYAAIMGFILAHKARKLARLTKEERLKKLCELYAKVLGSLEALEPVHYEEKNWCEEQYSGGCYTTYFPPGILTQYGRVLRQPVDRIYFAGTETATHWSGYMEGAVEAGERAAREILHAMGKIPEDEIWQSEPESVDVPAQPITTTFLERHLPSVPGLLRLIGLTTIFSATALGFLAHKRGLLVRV
testSummary: Determination of human MAO-B inhibitory activity (Monoamine Oxidase Assay Kit, fluorescence)
Assay type: biochemical
assayContext: compound at 1 μM, read-out: Inhibitory rate (%) 1 μM
measuredQuantity: inhibition at 1 µM (%)

1. Cc1cc(=O)c(O)c(C)n1CCCn1cc(COc2ccc3ccc(=O)oc3c2)nn1 [Compound 27d]; 9.67
2. Cc1cc(=O)c(O)c(C)n1CCn1cc(COc2ccc3ccc(=O)oc3c2)nn1 [Compound 27c]; 1.84
3. Cc1cc(=O)c(O)c(CO)n1CCn1cc(COc2cc(=O)oc3ccccc23)nn1 [Compound 27h]; 13.2
4. CCc1c(O)c(=O)ccn1CCCn1cc(COc2ccc3ccc(=O)oc3c2)nn1 [Compound 27e]; 1.23
5. CCc1c(O)c(=O)ccn1CCCn1cc(COc2cc3ccccc3oc2=O)nn1 [Compound 27j]; 62
